Listed below: Inhibition yield values for each entry.
- System: HCT (human colonic cancer) cells
- Protocol Notes: MTT antitumor activity in vitro, HCT cells
- Format: cell-based
- Test Conditions: 50 μg/mL, DMSO as solvent
- Experimental: The antitumor activity in vitro was assayed by the MTT method using DMSO as solvent. The tumor inhibition yield and IC50 of the five organogermanium sesquioxides and Ge-132 against KB (human nasopharyngeal cancer), HCT (human colonic cancer), and Bel (human liver cancer) cells were measured.
Please state the figure in %; there is no need to write the unit.

O=C1OC(=O)C2C3OC(C[CH]3[Ge](=[O])[O][Ge](=[O])[CH]3CC4OC3C3C(=O)OC(=O)C43)C12 (stereo not drawn); 0
NC(=S)NCC[CH2][Ge](=[O])[O][Ge](=[O])[CH2]CCNC(N)=S; 84.9
CCOC(=O)CCC(NC(=O)C[CH2][Ge](=[O])[O][Ge](=[O])[CH2]CC(=O)NC(CCC(=O)OCC)C(=O)OCC)C(=O)OCC (stereo not drawn) [Compound 4, Germanium Sesquioxide of Ethyl Glutamate]; 41.5
O=C1NC(=O)C2C3OC(C[CH]3[Ge](=[O])[O][Ge](=[O])[CH]3CC4OC3C3C(=O)NC(=O)C43)C12 (stereo not drawn); 0
O=C(O)C[CH2][Ge](=[O])[O][Ge](=[O])[CH2]CC(=O)O [Ge-132, carboxyethylgermanium sesquioxide, reference compound]; 31.4

// next entry
Query: // Inhibition yield lookup, key: NN1C(=O)C2C3C[CH]([Ge](=[O])[O][Ge](=[O])[CH]4CC5OC4C4C(=O)N(N)C(=O)C54)C(O3)C2C1=O (stereo not drawn)
Reply: 0
